- system_under_test: Ryanodine receptor 2 (Mus musculus) (UniProt E9Q401)
- Sequence (E9Q401 whole entry): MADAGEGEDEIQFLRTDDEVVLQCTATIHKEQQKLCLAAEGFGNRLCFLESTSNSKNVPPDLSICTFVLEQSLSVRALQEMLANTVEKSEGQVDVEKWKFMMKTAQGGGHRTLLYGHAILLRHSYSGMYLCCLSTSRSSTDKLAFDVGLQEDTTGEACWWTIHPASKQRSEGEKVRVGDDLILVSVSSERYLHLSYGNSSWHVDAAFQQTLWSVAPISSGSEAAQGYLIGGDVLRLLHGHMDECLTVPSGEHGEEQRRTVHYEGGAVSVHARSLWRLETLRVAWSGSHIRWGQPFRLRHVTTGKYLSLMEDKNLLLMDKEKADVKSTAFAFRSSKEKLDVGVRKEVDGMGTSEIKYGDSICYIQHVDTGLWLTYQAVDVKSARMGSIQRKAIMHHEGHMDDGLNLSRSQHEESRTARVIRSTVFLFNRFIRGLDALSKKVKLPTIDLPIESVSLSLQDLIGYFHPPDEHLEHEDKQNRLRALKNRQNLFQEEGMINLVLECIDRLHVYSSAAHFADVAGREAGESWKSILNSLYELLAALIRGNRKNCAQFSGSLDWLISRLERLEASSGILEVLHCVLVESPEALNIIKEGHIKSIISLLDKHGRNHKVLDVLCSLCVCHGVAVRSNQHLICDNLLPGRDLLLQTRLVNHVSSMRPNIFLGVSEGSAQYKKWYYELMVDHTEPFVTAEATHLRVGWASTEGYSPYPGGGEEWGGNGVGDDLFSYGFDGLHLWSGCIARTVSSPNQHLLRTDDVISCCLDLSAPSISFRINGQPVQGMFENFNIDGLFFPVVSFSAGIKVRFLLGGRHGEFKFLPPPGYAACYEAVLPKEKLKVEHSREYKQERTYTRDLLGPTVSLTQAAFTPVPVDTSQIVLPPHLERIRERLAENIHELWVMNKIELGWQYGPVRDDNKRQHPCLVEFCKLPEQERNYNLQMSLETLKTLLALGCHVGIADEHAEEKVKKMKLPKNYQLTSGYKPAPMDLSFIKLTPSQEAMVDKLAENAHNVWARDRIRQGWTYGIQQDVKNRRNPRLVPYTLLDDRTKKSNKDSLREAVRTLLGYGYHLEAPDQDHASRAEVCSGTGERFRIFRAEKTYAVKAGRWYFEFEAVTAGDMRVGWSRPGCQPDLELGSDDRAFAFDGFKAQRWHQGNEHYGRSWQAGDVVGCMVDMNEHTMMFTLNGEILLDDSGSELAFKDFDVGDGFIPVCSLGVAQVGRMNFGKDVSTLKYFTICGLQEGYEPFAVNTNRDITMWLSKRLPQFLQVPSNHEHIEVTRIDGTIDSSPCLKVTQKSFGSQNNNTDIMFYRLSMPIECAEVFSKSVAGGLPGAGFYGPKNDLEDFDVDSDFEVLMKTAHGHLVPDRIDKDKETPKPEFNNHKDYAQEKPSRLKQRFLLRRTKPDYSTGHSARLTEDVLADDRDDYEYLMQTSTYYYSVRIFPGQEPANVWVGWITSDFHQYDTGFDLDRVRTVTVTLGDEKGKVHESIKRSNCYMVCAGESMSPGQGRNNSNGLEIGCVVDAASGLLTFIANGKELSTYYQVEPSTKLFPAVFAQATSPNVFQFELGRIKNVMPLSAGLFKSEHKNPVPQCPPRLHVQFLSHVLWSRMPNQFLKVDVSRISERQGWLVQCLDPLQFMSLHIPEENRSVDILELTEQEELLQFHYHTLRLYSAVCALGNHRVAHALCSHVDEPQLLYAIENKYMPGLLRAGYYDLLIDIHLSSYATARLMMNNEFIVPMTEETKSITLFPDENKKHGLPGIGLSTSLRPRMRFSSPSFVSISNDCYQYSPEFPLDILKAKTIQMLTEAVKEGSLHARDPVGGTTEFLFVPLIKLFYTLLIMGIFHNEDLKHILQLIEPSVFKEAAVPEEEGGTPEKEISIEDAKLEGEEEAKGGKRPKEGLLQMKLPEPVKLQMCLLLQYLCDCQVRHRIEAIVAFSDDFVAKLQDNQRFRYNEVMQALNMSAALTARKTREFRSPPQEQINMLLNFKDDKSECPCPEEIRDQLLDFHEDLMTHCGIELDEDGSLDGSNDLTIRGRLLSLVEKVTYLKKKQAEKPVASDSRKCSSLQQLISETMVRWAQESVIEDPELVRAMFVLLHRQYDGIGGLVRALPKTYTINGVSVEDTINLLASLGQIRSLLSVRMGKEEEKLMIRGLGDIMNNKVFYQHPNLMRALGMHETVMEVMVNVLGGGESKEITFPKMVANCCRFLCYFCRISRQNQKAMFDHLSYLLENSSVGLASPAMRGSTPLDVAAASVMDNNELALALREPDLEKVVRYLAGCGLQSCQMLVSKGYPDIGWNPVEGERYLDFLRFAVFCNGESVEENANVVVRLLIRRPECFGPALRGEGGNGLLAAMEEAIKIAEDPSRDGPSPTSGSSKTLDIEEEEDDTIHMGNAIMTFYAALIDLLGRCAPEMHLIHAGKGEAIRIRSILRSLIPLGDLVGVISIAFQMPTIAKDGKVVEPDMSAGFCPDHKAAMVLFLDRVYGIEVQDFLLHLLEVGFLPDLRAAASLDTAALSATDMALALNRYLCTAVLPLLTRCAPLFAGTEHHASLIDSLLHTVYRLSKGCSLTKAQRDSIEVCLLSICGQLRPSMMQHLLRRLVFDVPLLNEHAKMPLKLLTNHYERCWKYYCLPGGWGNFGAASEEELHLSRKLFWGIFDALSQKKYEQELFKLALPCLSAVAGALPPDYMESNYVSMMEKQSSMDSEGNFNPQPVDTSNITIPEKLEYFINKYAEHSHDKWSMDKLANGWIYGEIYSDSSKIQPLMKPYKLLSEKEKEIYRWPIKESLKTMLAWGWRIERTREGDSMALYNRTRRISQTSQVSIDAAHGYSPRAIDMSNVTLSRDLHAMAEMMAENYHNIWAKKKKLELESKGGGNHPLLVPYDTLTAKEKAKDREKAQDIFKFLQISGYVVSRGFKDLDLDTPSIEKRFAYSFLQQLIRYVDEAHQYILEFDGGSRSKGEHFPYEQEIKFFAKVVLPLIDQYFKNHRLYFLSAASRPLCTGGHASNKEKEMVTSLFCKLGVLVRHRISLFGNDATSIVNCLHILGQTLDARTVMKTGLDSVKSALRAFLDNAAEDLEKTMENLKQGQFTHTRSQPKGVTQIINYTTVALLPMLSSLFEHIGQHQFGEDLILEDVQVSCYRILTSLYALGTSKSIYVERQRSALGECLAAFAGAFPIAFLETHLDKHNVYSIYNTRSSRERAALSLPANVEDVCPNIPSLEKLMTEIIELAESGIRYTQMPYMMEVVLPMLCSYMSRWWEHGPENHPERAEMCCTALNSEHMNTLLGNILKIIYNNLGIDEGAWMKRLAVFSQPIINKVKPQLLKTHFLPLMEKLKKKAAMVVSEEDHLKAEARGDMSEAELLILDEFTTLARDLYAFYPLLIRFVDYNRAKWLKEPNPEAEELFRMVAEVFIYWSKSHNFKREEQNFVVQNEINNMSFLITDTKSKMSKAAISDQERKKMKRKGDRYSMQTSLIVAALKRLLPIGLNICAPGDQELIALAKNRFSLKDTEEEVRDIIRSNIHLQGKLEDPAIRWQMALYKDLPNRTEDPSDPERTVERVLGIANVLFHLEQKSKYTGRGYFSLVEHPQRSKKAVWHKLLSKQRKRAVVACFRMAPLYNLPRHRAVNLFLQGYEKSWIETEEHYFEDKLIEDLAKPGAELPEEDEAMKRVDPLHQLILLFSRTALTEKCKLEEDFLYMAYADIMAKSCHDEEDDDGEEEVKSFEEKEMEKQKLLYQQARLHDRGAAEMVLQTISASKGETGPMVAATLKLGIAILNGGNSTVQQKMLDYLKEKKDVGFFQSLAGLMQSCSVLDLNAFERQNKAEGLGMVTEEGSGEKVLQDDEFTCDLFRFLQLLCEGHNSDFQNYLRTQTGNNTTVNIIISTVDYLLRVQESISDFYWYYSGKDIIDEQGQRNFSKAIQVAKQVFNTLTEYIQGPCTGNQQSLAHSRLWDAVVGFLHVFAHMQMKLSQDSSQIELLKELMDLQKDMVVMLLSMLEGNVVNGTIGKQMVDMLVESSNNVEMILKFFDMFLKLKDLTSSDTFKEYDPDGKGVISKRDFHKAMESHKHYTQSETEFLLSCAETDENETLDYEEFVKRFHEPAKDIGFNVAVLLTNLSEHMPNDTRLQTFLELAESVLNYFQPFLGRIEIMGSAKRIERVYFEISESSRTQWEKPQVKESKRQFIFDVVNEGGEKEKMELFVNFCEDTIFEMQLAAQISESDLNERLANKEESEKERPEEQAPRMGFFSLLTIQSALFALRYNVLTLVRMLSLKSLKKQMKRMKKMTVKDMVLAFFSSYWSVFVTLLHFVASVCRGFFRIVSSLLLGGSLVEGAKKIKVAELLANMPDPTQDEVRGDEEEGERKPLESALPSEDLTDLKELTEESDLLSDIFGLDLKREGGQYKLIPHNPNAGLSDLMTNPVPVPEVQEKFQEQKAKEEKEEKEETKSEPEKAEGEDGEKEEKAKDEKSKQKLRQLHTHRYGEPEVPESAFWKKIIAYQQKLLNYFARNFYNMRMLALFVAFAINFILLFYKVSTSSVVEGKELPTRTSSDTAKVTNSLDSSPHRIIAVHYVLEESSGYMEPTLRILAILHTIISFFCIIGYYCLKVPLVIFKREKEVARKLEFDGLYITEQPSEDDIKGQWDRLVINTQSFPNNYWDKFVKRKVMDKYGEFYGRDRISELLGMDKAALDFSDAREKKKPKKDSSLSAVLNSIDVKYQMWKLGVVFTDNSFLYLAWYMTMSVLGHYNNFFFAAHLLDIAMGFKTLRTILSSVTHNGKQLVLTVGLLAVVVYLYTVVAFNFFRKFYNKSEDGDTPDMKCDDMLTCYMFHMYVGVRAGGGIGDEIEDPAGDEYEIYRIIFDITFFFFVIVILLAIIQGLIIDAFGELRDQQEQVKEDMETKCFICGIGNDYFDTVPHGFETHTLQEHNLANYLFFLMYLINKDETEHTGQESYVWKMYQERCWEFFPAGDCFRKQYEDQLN
- method_notes: Inhibition of RyR2-mediated calcium spark frequency in saponin-permeabilized left ventricular myocytes of C57BL/6J mouse at 25 uM incubated for 15 min by Fluo-4 dye based analysis
- Assay type: cell-based
- test_parameters: Ventricular myocyte
Active and inactive are the calls of the source. The calls are words filed in the database; no cut-off is given here. Square brackets hold non-standard residues; d marks the D form. Peptide text beside a SMILES is read from it. NMeAhp(2) = CCCCC[C@H](NC)C(=O)O; Ahp(2) = CCCCC[C@H](N)C(=O)O; dNMeA = CN[C@H](C)C(=O)O
property_label: inhibition

CCCCC[C@@H]1NC(=O)[C@@H](C)N(C)C(=O)[C@H](CCCCC)N(C)C(=O)[C@@H](C)N(C)C(=O)[C@H](CCCCC)NC(=O)[C@@H](C)N(C)C(=O)[C@H](CCCCC)N(C)C(=O)[C@@H](C)N(C)C1=O (cyclo([Ahp(2)][dNMeA][NMeAhp(2)][dNMeA][Ahp(2)][dNMeA][NMeAhp(2)][dNMeA])) ... inactive
CCCCC[C@@H]1OC(=O)[C@@H](C)N(C)C(=O)[C@H](CCCCC)OC(=O)[C@@H](C)N(C)C(=O)[C@H](CCCCC)OC(=O)[C@@H](C)NC(=O)[C@H](CCCCC)OC(=O)[C@@H](C)NC1=O ... inactive
CCCCC[C@@H]1OC(=O)[C@@H](C)N(C)C(=O)[C@H](CCCCC)OC(=O)[C@@H](C)N(C)C(=O)[C@H](CCCCC)OC(=O)[C@@H](C)N(C)C(=O)[C@H](CCCCC)OC(=O)[C@@H](C)NC1=O ... inactive

* * *

- system_under_test: Ryanodine receptor 2 (Mus musculus)
- method_notes: Inhibition of RyR2-mediated calcium spark frequency in saponin-permeabilized left ventricular myocytes of C57BL/6J mouse at 25 uM incubated for 15 min by Fluo-4 dye based analysis
- Assay type: cell-based
- test_parameters: Ventricular myocyte
Calls of active or inactive are those of the source. The calls are words filed in the database; no cut-off is given here. Square brackets hold non-standard residues; d marks the D form. Peptide text beside a SMILES is read from it. NMeAhp(2) = CCCCC[C@H](NC)C(=O)O; dNMeA = CN[C@H](C)C(=O)O
property_label: inhibition

CCCCC[C@@H]1OC(=O)[C@@H](C)N(C)C(=O)[C@H](CCCCC)N(C)C(=O)[C@@H](C)N(C)C(=O)[C@H](CCCCC)N(C)C(=O)[C@@H](C)N(C)C(=O)[C@H](CCCCC)OC(=O)[C@@H](C)N(C)C1=O ... inactive
CCCCC[C@H]1C(=O)N[C@H](C)C(=O)N(C)[C@@H](CCCCC)C(=O)N[C@H](C)C(=O)N(C)[C@@H](CCCCC)C(=O)N[C@H](C)C(=O)N(C)[C@@H](CCCCC)C(=O)N(C)[C@H](C)C(=O)N1C (cyclo([NMeAhp(2)][dA][NMeAhp(2)][dA][NMeAhp(2)][dA][NMeAhp(2)][dNMeA])) ... inactive

* * *

- system_under_test: UniProt E9Q401
- method_notes: Inhibition of RyR2-mediated calcium spark frequency in saponin-permeabilized left ventricular myocytes of C57BL/6J mouse at 25 uM incubated for 15 min by Fluo-4 dye based analysis
- Format: cell-based
- test_parameters: Ventricular myocyte
Activity calls are given as the source filed them. No cut-off for these calls is given here. Numbered stars: 1 amine (or outer) side, 2 acyl side, 3 side chain; on linkers, the order of the positions; unused ones are H or OH. Square brackets hold non-standard residues; d marks the D form. Peptide text beside a SMILES is read from it. X1 = CCCCC[C@H](O[*:1])C(=O)[*:2]; NMeAhp(2) = CCCCC[C@H](NC)C(=O)O; Ahp(2) = CCCCC[C@H](N)C(=O)O; dNMeA = CN[C@H](C)C(=O)O
property_label: inhibition

CCCCC[C@H]1C(=O)N[C@H](C)C(=O)N(C)[C@@H](CCCCC)C(=O)N[C@H](C)C(=O)N(C)[C@@H](CCCCC)C(=O)N[C@H](C)C(=O)N(C)[C@@H](CCCCC)C(=O)N[C@H](C)C(=O)N1C (cyclo([NMeAhp(2)][dA][NMeAhp(2)][dA][NMeAhp(2)][dA][NMeAhp(2)][dA])) ... inactive
CCCCC[C@H]1C(=O)N(C)[C@H](C)C(=O)N(C)[C@@H](CCCCC)C(=O)N(C)[C@H](C)C(=O)N(C)[C@@H](CCCCC)C(=O)N(C)[C@H](C)C(=O)N(C)[C@@H](CCCCC)C(=O)N(C)[C@H](C)C(=O)N1C (cyclo([NMeAhp(2)][dNMeA][NMeAhp(2)][dNMeA][NMeAhp(2)][dNMeA][NMeAhp(2)][dNMeA])) ... inactive
CCCCC[C@@H]1NC(=O)[C@@H](C)N(C)C(=O)[C@H](CCCCC)OC(=O)[C@@H](C)N(C)C(=O)[C@H](CCCCC)OC(=O)[C@@H](C)N(C)C(=O)[C@H](CCCCC)NC(=O)[C@@H](C)N(C)C1=O (cyclo([Ahp(2)][dNMeA][Ahp(2)][dNMeA][X1][dNMeA][X1][dNMeA])) ... inactive

* * *

- system_under_test: Ryanodine receptor 2 (Mus musculus)
- method_notes: Inhibition of RyR2-mediated calcium spark frequency in saponin-permeabilized left ventricular myocytes of C57BL/6J mouse at 25 uM incubated for 15 min by Fluo-4 dye based analysis
- Type: cell-based
- test_parameters: Ventricular myocyte
Active and inactive are the calls of the source. No cut-off for these calls is given here. Numbered stars: 1 amine (or outer) side, 2 acyl side, 3 side chain; on linkers, the order of the positions; unused ones are H or OH. Square brackets hold non-standard residues; d marks the D form. Peptide text beside a SMILES is read from it. X1 = CCCCC[C@H](O[*:1])C(=O)[*:2]; NMeAhp(2) = CCCCC[C@H](NC)C(=O)O; Ahp(2) = CCCCC[C@H](N)C(=O)O; dNMeA = CN[C@H](C)C(=O)O
Select the correct class. Options are label 1 for active, label 0 for inactive and nothing else.

CCCCC[C@@H]1NC(=O)[C@@H](C)N(C)C(=O)[C@H](CCCCC)OC(=O)[C@@H](C)N(C)C(=O)[C@H](CCCCC)NC(=O)[C@@H](C)N(C)C(=O)[C@H](CCCCC)OC(=O)[C@@H](C)N(C)C1=O (cyclo([Ahp(2)][dNMeA][X1][dNMeA][Ahp(2)][dNMeA][X1][dNMeA])) ... label 0
CCCCC[C@@H]1NC(=O)[C@@H](C)N(C)C(=O)[C@H](CCCCC)NC(=O)[C@@H](C)N(C)C(=O)[C@H](CCCCC)N(C)C(=O)[C@@H](C)N(C)C(=O)[C@H](CCCCC)NC(=O)[C@@H](C)N(C)C1=O (cyclo([Ahp(2)][dNMeA][Ahp(2)][dNMeA][Ahp(2)][dNMeA][NMeAhp(2)][dNMeA])) ... label 0
CCCCC[C@@H]1OC(=O)[C@@H](C)NC(=O)[C@H](CCCCC)OC(=O)[C@@H](C)NC(=O)[C@H](CCCCC)OC(=O)[C@@H](C)NC(=O)[C@H](CCCCC)OC(=O)[C@@H](C)NC1=O ... label 0
CCCCC[C@H]1C(=O)N[C@H](C)C(=O)N(C)[C@@H](CCCCC)C(=O)N(C)[C@H](C)C(=O)N(C)[C@@H](CCCCC)C(=O)N[C@H](C)C(=O)N(C)[C@@H](CCCCC)C(=O)N(C)[C@H](C)C(=O)N1C (cyclo([NMeAhp(2)][dA][NMeAhp(2)][dNMeA][NMeAhp(2)][dA][NMeAhp(2)][dNMeA])) ... label 0

Lookup: Hi, sorry to bother you, what did the test record for CCCCC[C@@H]1OC(=O)[C@@H](C)N(C)C(=O)[C@H](CCCCC)OC(=O)[C@@H](C)NC(=O)[C@H](CCCCC)OC(=O)[C@@H](C)N(C)C(=O)[C@H](CCCCC)OC(=O)[C@@H](C)NC1=O ?
Found: label 0

Lookup: Hi, sorry to bother you, what did the test record for CCCCC[C@@H]1NC(=O)[C@@H](C)N(C)C(=O)[C@H](CCCCC)N(C)C(=O)[C@@H](C)N(C)C(=O)[C@H](CCCCC)N(C)C(=O)[C@@H](C)N(C)C(=O)[C@H](CCCCC)NC(=O)[C@@H](C)N(C)C1=O (cyclo([Ahp(2)][dNMeA][Ahp(2)][dNMeA][NMeAhp(2)][dNMeA][NMeAhp(2)][dNMeA])) ?
Found: label 0

Lookup: Hi, sorry to bother you, what did the test record for CCCCC[C@@H]1NC(=O)[C@@H](C)N(C)C(=O)[C@H](CCCCC)OC(=O)[C@@H](C)N(C)C(=O)[C@H](CCCCC)OC(=O)[C@@H](C)N(C)C(=O)[C@H](CCCCC)OC(=O)[C@@H](C)N(C)C1=O (cyclo([Ahp(2)][dNMeA][X1][dNMeA][X1][dNMeA][X1][dNMeA])) ?
Found: label 1

Lookup: Hi, sorry to bother you, what did the test record for CCCCC[C@@H]1OC(=O)[C@@H](C)N(C)C(=O)[C@H](CCCCC)OC(=O)[C@@H](C)N(C)C(=O)[C@H](CCCCC)OC(=O)[C@@H](C)N(C)C(=O)[C@H](CCCCC)OC(=O)[C@@H](C)N(C)C1=O ?
Found: label 0

Cited source for all entries: ChEMBL document CHEMBL5523734
